- tested.system: DR1 (DRA1*0101 DRB1*0101) (Homo sapiens, UniProt P01903+P01911, A100R/D57E/F55L/F60I/F76Y/I96L/L162R/M171V/P40L/Q125E/R42F/V115G/Y59C)
- experiment.notes: Competitive binding to MHC-II protein DR1
- assay.context: Protein binding IC50 (nM) 0101, 0101
Numbered stars: 1 amine (or outer) side, 2 acyl side, 3 side chain; on linkers, the order of the positions; unused ones are H or OH. Square brackets hold non-standard residues; d marks the D form. Peptide text beside a SMILES is read from it. * marks the point of attachment. ξ: configuration not given here. Gly(1-amidinopiperidin-4-yl) = N=C(N)N1CCC([C@H](N)C(=O)O)CC1; Tetrahydroisoquinolin(2-yl) = c1ccc2c(c1)CCN(*)C2; X1 = CC(C)c1oc([C@H](CO)N[*:1])nc1C(=O)[*:2]; Pro(3R-Ph) = O=C(O)[C@H]1NCC[C@@H]1c1ccccc1; Tic = O=C(O)[C@@H]1Cc2ccccc2CN1; Cha = N[C@@H](CC1CCCCC1)C(=O)O; NMe(benzyl) = CN(Cc1ccccc1)*; ξDisc = O=C(O)C1NCc2ccccc21; Nle = CCCC[C@H](N)C(=O)O
So basically: is IC50 under 200 nM? Then MET. Not under? Then NOT MET.

# compound, category
data = [
    ("CCCC[C@H](NC(=O)[C@@H]1Cc2ccccc2CN1C(=O)[C@@H](NC(=O)[C@H](CC1CCCCC1)NC(C)=O)C1CCN(C(=N)N)CC1)C(=O)N1CC[C@H](c2ccccc2)[C@H]1C(=O)N[C@@H](CO)c1nc(C(=O)N(C)C)c(C(C)C)o1 [Compound P53] (Ac-[Cha][Gly(1-amidinopiperidin-4-yl)][Tic][Nle][Pro(3R-Ph)][X1]-NMe2)", "NOT MET"),
    ("CSCC[C@H](NC(=O)[C@@H]1Cc2ccccc2CN1C(=O)[C@@H](NC(=O)[C@H](CC1CCCCC1)NC(C)=O)C1CCN(C(=N)N)CC1)C(N)=O [Compound P67, Ac-Cha-Gpg-Tic-Met-NH2] (Ac-[Cha][Gly(1-amidinopiperidin-4-yl)][Tic]M-NH2)", "MET"),
]

Query :: # check: IC50 < 200 nM for CSCC[C@H](NC(=O)[C@@H]1Cc2ccccc2CN1C(=O)[C@@H](NC(=O)[C@H](CC1CCCCC1)NC(C)=O)C1CCN(C(=N)N)CC1)C(=O)N1CC[C@H](c2ccccc2)[C@H]1C(=O)N[C@@H](CO)c1nc(C(=O)N(C)C)c(C(C)C)o1 [Compound P60] (Ac-[Cha][Gly(1-amidinopiperidin-4-yl)][Tic]M[Pro(3R-Ph)][X1]-NMe2)
Result :: NOT MET

Query :: Okay, and CCCC[C@H](NC(=O)C1c2ccccc2CN1C(=O)[C@@H](NC(=O)[C@H](CC1CCCCC1)NC(C)=O)C1CCN(C(=N)N)CC1)C(=O)N(C)Cc1ccccc1 (single isomer, unassigned) ?
Result :: NOT MET

Query :: Further, for CCCC[C@H](NC(=O)[C@@H]1Cc2ccccc2CN1C(=O)[C@@H](NC(=O)[C@H](CC1CCCCC1)NC(C)=O)C1CCN(C(=N)N)CC1)C(=O)N(C)Cc1ccccc1 [Compound P74, Ac-Cha-Gpg-Tic-Nle-N(Me)Bn] (Ac-[Cha][Gly(1-amidinopiperidin-4-yl)][Tic][Nle]-{NMe(benzyl)}) ?
Result :: NOT MET

Query :: Now this one: CCCC[C@H](NC(=O)[C@@H]1Cc2ccccc2CN1C(=O)[C@@H](NC(=O)[C@H](CC1CCCCC1)NC(C)=O)C1CCN(C(=N)N)CC1)C(=O)N1CCc2ccccc2C1 [Compound P77] (Ac-[Cha][Gly(1-amidinopiperidin-4-yl)][Tic][Nle]-{Tetrahydroisoquinolin(2-yl)})
Result :: NOT MET

Query :: Record: CSCC[C@H](NC(=O)C1c2ccccc2CN1C(=O)[C@@H](NC(=O)[C@H](CC1CCCCC1)NC(C)=O)C1CCN(C(=N)N)CC1)C(=O)N1CC[C@H](c2ccccc2)[C@H]1C(=O)N[C@@H](CO)c1nc(C(=O)N(C)C)c(C(C)C)o1 (stereo partly drawn) [Compound P41-1] (Ac-[Cha][Gly(1-amidinopiperidin-4-yl)][ξDisc]M[Pro(3R-Ph)][X1]-NMe2)
Result :: MET

Provenance of the data: patent US7629318B2
